Source of measurements: patent US4169197A

- Test system: S. schottmuelleri UC 126
- Measurement protocol: standard microplate test in BHI Agar
- Format: cell-based
- Experimental parameters: 37°, 20 hours, Table IV, read-out: Minimal Inhibitory Concentration
Provide the reported MIC of each item.
Quick reminder: number only, in µg/mL, skip the unit.

Dear colleague, I am looking for the recorded MIC of the following molecule: NC[C@H]1O[C@H](O[C@@H]2[C@@H](N)C[C@@H](N)C[C@H]2O[C@H]2O[C@H](CO)[C@@H](O)[C@H]2O)[C@H](N)[C@@H](O)[C@@H]1O 125

Dear colleague, I am looking for the recorded MIC of the following molecule: NC[C@H]1O[C@H](O[C@@H]2[C@@H](N)C[C@@H](N)C[C@H]2O[C@@H]2O[C@H](CO)[C@@H](O)[C@H]2O)[C@H](N)[C@@H](O)[C@@H]1O 7.8

Dear colleague, I am looking for the recorded MIC of the following molecule: NC[C@H]1O[C@H](O[C@H]2[C@H](O)[C@@H](O)[C@H](N)C[C@@H]2N)[C@H](N)[C@@H](O)[C@@H]1O 15.6

* * *

- Tested on: S. schottmuelleri UC 126
- Measurement protocol: standard disc plate assay, zones of inhibition
- Format: cell-based
- Experimental parameters: 1 mg/ml; 12.5 mm paper discs; Table I
Measured attribute: zone of inhibition at 1000 µg/mL (mm)
Quick reminder: number only, in mm, skip the unit.

Dear colleague, I am looking for the recorded zone of inhibition at 1000 µg/mL of the following compound: NC[C@H]1O[C@H](O[C@@H]2[C@@H](N)C[C@@H](N)C[C@H]2O[C@H]2O[C@H](CO)[C@@H](O)[C@H]2O)[C@H](N)[C@@H](O)[C@@H]1O 20

Dear colleague, I am looking for the recorded zone of inhibition at 1000 µg/mL of the following compound: NC[C@H]1O[C@H](O[C@H]2[C@H](O)[C@@H](O)[C@H](N)C[C@@H]2N)[C@H](N)[C@@H](O)[C@@H]1O 24

Dear colleague, I am looking for the recorded zone of inhibition at 1000 µg/mL of the following compound: NC[C@H]1O[C@H](O[C@@H]2[C@@H](N)C[C@@H](N)C[C@H]2O[C@@H]2C[C@@H](N)[C@H](O)[C@@H](CO)O2)[C@H](N)[C@@H](O)[C@@H]1O 15

Dear colleague, I am looking for the recorded zone of inhibition at 1000 µg/mL of the following compound: NC[C@H]1O[C@H](O[C@@H]2[C@@H](N)C[C@@H](N)C[C@H]2O[C@@H]2O[C@H](CO)[C@@H](O)[C@H]2O)[C@H](N)[C@@H](O)[C@@H]1O 24
